The origin of these recorded values is ChEMBL document CHEMBL2007661.

target: Tyrosine-protein kinase Mer (Homo sapiens) (UniProt Q12866); conditions: at 10 µM
measuredProperty: inhibition (%)
Numbers only, in %.

// solved cases for inhibition follow
Looking up `N#Cc1c(NC(=O)c2ccccc2F)sc2c1CCCC2` , I see its inhibition listed as -6

Value of measured inhibition for the entry `CC(C)(CO)CNC(=O)c1ccc2c(c1)/C(=N/Nc1ccc(S(N)(=O)=O)cc1)C(=O)N2` : 9

Pending molecule:
Per the records, this molecule ( `NS(=O)(=O)c1ccc(N/N=C2\C(=O)Nc3ccc(C(=O)NCCc4c[nH]cn4)cc32)cc1` ) has inhibition equal to -1

----------
Would you mind telling me the reported inhibition of each entry?
Target: Tyrosine-protein kinase Mer (Homo sapiens)
Sequence (whole entry): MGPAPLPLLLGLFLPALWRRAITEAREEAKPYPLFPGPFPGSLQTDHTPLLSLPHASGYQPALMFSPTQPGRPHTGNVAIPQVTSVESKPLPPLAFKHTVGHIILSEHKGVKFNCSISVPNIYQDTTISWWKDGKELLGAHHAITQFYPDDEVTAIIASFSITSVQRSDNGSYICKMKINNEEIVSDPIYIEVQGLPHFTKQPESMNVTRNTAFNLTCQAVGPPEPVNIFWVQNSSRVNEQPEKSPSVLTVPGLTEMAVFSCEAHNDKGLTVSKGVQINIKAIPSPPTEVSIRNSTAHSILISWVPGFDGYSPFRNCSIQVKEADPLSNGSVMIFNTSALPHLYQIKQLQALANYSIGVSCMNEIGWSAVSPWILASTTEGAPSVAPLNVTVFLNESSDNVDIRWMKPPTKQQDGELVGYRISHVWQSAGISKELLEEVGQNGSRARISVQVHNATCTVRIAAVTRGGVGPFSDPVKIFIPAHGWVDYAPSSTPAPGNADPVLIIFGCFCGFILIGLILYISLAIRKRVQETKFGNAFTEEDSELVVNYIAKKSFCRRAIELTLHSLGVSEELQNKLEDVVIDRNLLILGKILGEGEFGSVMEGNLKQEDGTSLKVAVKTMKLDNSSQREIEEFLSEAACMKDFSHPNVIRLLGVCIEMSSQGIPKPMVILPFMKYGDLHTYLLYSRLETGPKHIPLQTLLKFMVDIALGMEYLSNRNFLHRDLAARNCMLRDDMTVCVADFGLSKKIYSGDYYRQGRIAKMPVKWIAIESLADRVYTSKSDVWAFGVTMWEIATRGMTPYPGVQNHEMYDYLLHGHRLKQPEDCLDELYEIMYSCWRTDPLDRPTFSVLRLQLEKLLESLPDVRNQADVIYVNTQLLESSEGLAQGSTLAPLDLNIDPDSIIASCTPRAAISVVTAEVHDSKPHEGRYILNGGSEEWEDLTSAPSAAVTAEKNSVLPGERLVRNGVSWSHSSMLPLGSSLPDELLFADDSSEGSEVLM
Conditions: at 10 µM
# include the unit after the value

// recorded inhibition for `NS(=O)(=O)c1ccc(Nc2ncc(-c3ccccc3)o2)cc1` : 2%

Batch request: inhibition per item, same order as input.
1. COc1cc2c(cc1Nc1nc(Nc3ccsc3C(N)=O)c3cc[nH]c3n1)N(C(=O)CN(C)C)CCC2
2. CCS(=O)(=O)c1ccc(OC)c(Nc2ncc(-c3cccc(F)c3)o2)c1

Result:
67%
73%
